- procedure_text: The drug is tested on Z-028 corresponding to mouse gut metagenome with ENA study accession number: PRJEB37062 and ENA sample accession number: ERS12561827 for biotransformation under anaerobic condition. The drug concentrations were measured over 9 timepoints collected between 0 and 24 hours of incubation by liquid-chromatography-coupled mass spectrometry (LC–MS); further: call rule not given here
- measurement_context: 2 µM
quantity: Bacterial Biotransformation

Identify Bacterial Biotransformation associated with the compound CCN(CC)CC#CCOC(=O)C(O)(c1ccccc1)C1CCCCC1.Cl (stereo not drawn) [OXYBUTYNIN CHLORIDE]
Compound NOT metabolized

Note down Bacterial Biotransformation recorded for CN1CCc2c(c3ccccc3n2Cc2ccccc2)C1.CN1CCc2c(c3ccccc3n2Cc2ccccc2)C1.O=S(=O)(O)c1cccc2c(S(=O)(=O)O)cccc12
Compound NOT metabolized

---

- procedure_text: The drug is tested on Z-012 corresponding to metagenome with ENA study accession number: PRJEB37062 and ENA sample accession number: ERS12561812 for biotransformation under anaerobic condition. The drug concentrations were measured over 9 timepoints collected between 0 and 24 hours of incubation by liquid-chromatography-coupled mass spectrometry (LC–MS)
- measurement_context: 2 µM
quantity: Bacterial Biotransformation

Below: 4 compounds and their reported Bacterial Biotransformation.
In one line, give reported Bacterial Biotransformation of the entry N#Cc1ccc(C(c2ccc(C#N)cc2)n2cncn2)cc1 .
Compound NOT metabolized

Indicate the recorded Bacterial Biotransformation value for this compound: COc1ccccc1N1CCN(CC(O)COc2cccc3ccccc23)CC1 (stereo not given)
Compound NOT metabolized

Report Bacterial Biotransformation, nothing else, for this compound: Nc1c2c(nc3ccccc13)CCCC2
Compound NOT metabolized

For the compound CC(C)c1c(C(=O)Nc2ccccc2)c(-c2ccccc2)c(-c2ccc(F)cc2)n1CC[C@@H](O)C[C@@H](O)CC(=O)O , report Bacterial Biotransformation.
Compound NOT metabolized

Further cases:
Give the measured Bacterial Biotransformation for NC(=O)N1c2ccccc2CC(=O)c2ccccc21 [OXCARBAZEPINE]
Compound NOT metabolized

Give Bacterial Biotransformation for the following compound: COc1cc2c(c(OC)c1OC)-c1ccc(OC)c(=O)cc1[C@@H](NC(C)=O)CC2
Compound NOT metabolized

Return value of Bacterial Biotransformation for input CCC(=O)NCC[C@@H]1CCc2ccc3c(c21)CCO3 , no commentary.
Compound metabolized

Give the reported Bacterial Biotransformation for this compound. CCN(CC)CCOCCOC(=O)C1(c2ccccc2)CCCC1.O=C(O)CC(O)(CC(=O)O)C(=O)O [CARBETAPENTANE CITRATE]
Compound NOT metabolized

Fill in Bacterial Biotransformation for record CN(C)CCc1c[nH]c2ccc(Cn3cncn3)cc12.O=C(O)c1ccccc1 [RIZATRIPTAN BENZOATE]
Compound NOT metabolized

For CCCC1O[C@@H]2C[C@H]3[C@@H]4CCC5=CC(=O)C=C[C@]5(C)[C@H]4[C@@H](O)C[C@]3(C)[C@]2(C(=O)CO)O1 (stereo not given in full) [BUDESONIDE] , write its Bacterial Biotransformation.
Compound metabolized

---

- procedure_text: The drug is tested on WLS-086 corresponding to human gut metagenome with ENA study accession number: PRJEB37062 and ENA sample accession number: ERS12561752 for biotransformation under anaerobic condition. The drug concentrations were measured over 9 timepoints collected between 0 and 24 hours of incubation by liquid-chromatography-coupled mass spectrometry (LC–MS)
- measurement_context: 2 µM
quantity: Bacterial Biotransformation

Sample answers from the record:
Provide one value: measured Bacterial Biotransformation of COc1ccc(CCN(C)CCCC(C#N)(c2ccc(OC)c(OC)c2)C(C)C)cc1OC (stereo not given)
Compound metabolized

Consider the compound COc1ccccc1OCC(O)COC(N)=O (stereo not given) [METHOCARBAMOL] . State its measured Bacterial Biotransformation.
Compound NOT metabolized

Tell me Bacterial Biotransformation reported for Fc1ccc([C@@H]2CCNC[C@H]2COc2ccc3c(c2)OCO3)cc1 [PAROXETINE]
Compound metabolized

Supply Bacterial Biotransformation value. Item: CN(C)CCC=C1c2ccccc2C=Cc2ccccc21 [CYCLOBENZAPRINE]
Compound metabolized

Supply reported Bacterial Biotransformation belonging to this compound: OCCOCCN1CCN(C2=Nc3ccccc3Sc3ccccc32)CC1 [QUETIAPINE]
Compound metabolized

Identify the reported Bacterial Biotransformation for the following entry. COC(=O)C1=C(C)NC(C)=C(C(=O)OC(C)C)C1c1cccc2nonc12 (stereo not given) [ISRADIPINE]
Compound metabolized

Assign Bacterial Biotransformation to the following record: COC(=O)[C@H]1[C@H]2C[C@@H]3c4[nH]c5cc(OC)ccc5c4CCN3C[C@H]2C[C@@H](OC(=O)c2cc(OC)c(OC)c(OC)c2)[C@@H]1OC [RESERPINE]
Compound metabolized

Determine its reported Bacterial Biotransformation: CC(C)(C(=O)O)c1ccc(C(O)CCCN2CCC(C(O)(c3ccccc3)c3ccccc3)CC2)cc1 (stereo not given) [FEXOFENADINE]
Compound NOT metabolized

Tell me Bacterial Biotransformation reported for CN1CCc2cccc3c2[C@H]1Cc1ccc(O)c(O)c1-3 [APOMORPHINE]
Compound NOT metabolized

Output Bacterial Biotransformation of C[C@@H]1C[C@H]2[C@@H]3CCC4=CC(=O)C=C[C@]4(C)[C@@]3(F)[C@@H](O)C[C@]2(C)[C@@]1(O)C(=O)CO [DEXAMETHASONE]
Compound metabolized

More entries:
Read the entry Cc1ccc(/C(=C\CN2CCCC2)c2ccccn2)cc1 [TRIPROLIDINE] and write its reported Bacterial Biotransformation.
Compound NOT metabolized

Name the recorded Bacterial Biotransformation of the compound listed here: COc1ccc2c(c1OC)C(=O)O[C@@H]2[C@H]1c2c(cc3c(c2OC)OCO3)CCN1C [NOSCAPINE]
Compound metabolized

Give the reported Bacterial Biotransformation for this compound. CCN(CC)CCNC(=O)c1cc(Cl)c(N)cc1OC [METOCLOPRAMIDE]
Compound metabolized

Give the reported Bacterial Biotransformation for this compound. O=c1[nH]c2ccccc2n1CCCN1CCC(n2c(=O)[nH]c3cc(Cl)ccc32)CC1 [DOMPERIDONE]
Compound metabolized

Read off the recorded Bacterial Biotransformation for CS(=O)(=O)O.O.O.O.O=C1Cc2cc(CCN3CCN(c4nsc5ccccc45)CC3)c(Cl)cc2N1 [ZIPRASIDONE MESYLATE]
Compound metabolized

Give the reported value of Bacterial Biotransformation for this record: CCN(CC)CC#CCOC(=O)C(O)(c1ccccc1)C1CCCCC1.Cl (stereo not given) [OXYBUTYNIN CHLORIDE]
Compound metabolized

Determine from records and report Bacterial Biotransformation for N#Cc1ccc(C(c2ccc(C#N)cc2)n2cncn2)cc1 [LETROZOLE]
Compound NOT metabolized

Look up and report measured Bacterial Biotransformation for this entry: Br.CN(C)CCCC1(c2ccc(F)cc2)OCc2cc(C#N)ccc21 (stereo not given) [CITALOPRAM HYDROBROMIDE]
Compound metabolized

Read off the recorded Bacterial Biotransformation for CCCC(=O)Nc1ccc(OCC(O)CNC(C)C)c(C(C)=O)c1 (stereo not given) [ACEBUTOLOL]
Compound metabolized

Provide Bacterial Biotransformation value for the following compound: CC(=O)OCC(=O)[C@@]12N=C(C)O[C@@H]1C[C@H]1[C@@H]3CCC4=CC(=O)C=C[C@]4(C)[C@H]3[C@@H](O)C[C@@]12C [DEFLAZACORT]
Compound metabolized

---

- procedure_text: The drug is tested on WLS-220 corresponding to human gut metagenome with ENA study accession number: PRJEB37062 and ENA sample accession number: ERS12561769 for biotransformation under anaerobic condition. The drug concentrations were measured over 9 timepoints collected between 0 and 24 hours of incubation by liquid-chromatography-coupled mass spectrometry (LC–MS)
- measurement_context: 2 µM
quantity: Bacterial Biotransformation

Give me measured Bacterial Biotransformation, please, for this compound: CC(C)NCC(O)c1ccc(NS(C)(=O)=O)cc1 (stereo not drawn)
Compound NOT metabolized

Kindly indicate its recorded Bacterial Biotransformation. Item: CN1CCc2cccc3c2[C@H]1Cc1ccc(O)c(O)c1-3
Compound NOT metabolized

Supply Bacterial Biotransformation value. Item: Cc1nc2n(c(=O)c1CCN1CCC(c3noc4cc(F)ccc34)CC1)CCCC2
Compound metabolized

Answer with reported Bacterial Biotransformation of CCN(CC)CCOCCOC(=O)C1(c2ccccc2)CCCC1.O=C(O)CC(O)(CC(=O)O)C(=O)O [CARBETAPENTANE CITRATE]
Compound metabolized

Specify Bacterial Biotransformation for CC(C)(C(=O)O)c1ccc(C(O)CCCN2CCC(C(O)(c3ccccc3)c3ccccc3)CC2)cc1 (stereo not drawn) [FEXOFENADINE] and stop.
Compound NOT metabolized

***
Give recorded Bacterial Biotransformation. O=c1[nH]c2ccccc2n1CCCN1CCC(n2c(=O)[nH]c3cc(Cl)ccc32)CC1
Compound NOT metabolized

Identify measured Bacterial Biotransformation associated with CCCCC(=O)N(Cc1ccc(-c2ccccc2-c2nnn[nH]2)cc1)[C@H](C(=O)O)C(C)C
Compound NOT metabolized

Quote Bacterial Biotransformation reported for CC(C(=O)O)c1ccc2c(c1)Cc1cccnc1O2 (stereo not drawn) please.
Compound metabolized
